target: Keap1/Nrf2 (Homo sapiens, UniProt Q14145); assay: Inhibition of Keap1-Nrf2 protein-protein interaction (unknown origin) incubated for 34 mins by fluorescence polarization assay
Sequence (Q16236 whole entry): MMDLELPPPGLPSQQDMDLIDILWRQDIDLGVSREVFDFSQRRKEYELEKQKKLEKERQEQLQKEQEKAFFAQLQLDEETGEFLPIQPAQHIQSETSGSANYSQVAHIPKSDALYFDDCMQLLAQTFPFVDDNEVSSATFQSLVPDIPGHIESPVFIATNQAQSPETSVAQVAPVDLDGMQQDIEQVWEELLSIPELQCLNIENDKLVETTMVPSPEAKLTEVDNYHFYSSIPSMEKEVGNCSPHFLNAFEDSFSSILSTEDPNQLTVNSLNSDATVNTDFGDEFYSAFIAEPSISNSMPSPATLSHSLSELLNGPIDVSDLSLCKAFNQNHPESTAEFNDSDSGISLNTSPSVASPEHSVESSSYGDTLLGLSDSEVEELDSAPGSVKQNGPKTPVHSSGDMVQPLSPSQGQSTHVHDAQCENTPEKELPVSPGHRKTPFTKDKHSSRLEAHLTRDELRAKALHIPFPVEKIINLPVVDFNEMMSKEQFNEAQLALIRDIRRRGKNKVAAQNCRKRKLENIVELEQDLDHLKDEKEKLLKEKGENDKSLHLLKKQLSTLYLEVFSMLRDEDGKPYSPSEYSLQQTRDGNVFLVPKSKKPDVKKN
Sequence (Q14145 whole entry): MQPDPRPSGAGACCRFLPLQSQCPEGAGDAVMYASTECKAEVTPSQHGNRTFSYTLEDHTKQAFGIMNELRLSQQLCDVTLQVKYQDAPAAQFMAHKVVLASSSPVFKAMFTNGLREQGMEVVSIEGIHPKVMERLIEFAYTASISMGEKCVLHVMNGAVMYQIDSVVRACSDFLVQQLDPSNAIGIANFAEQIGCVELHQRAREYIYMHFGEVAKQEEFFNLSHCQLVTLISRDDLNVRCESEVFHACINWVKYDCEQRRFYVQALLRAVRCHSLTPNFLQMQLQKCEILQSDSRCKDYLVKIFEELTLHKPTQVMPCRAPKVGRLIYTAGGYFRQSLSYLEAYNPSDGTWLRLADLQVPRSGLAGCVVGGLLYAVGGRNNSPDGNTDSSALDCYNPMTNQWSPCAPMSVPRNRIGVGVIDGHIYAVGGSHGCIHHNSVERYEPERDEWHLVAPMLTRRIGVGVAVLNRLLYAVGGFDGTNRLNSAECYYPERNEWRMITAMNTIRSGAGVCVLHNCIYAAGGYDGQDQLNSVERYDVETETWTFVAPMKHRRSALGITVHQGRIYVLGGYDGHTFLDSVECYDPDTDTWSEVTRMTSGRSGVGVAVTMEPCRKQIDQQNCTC
Give measured pIC50 for each item. Keep answers brief.
When answering, recall that pIC50 equals minus log10 of the concentration in mol/L, and write that number alone.

Value of measured pIC50 for the entry COc1ccc(S(=O)(=O)N(CC(=O)O)c2cc(-c3ccccc3)c(N(CC(=O)O)S(=O)(=O)c3ccc(OC)cc3)c3ccccc23)cc1 : 7.02

Value of measured pIC50 for the entry COc1ccc(S(=O)(=O)N(CC(=O)O)c2cc(CCC(=O)N3CCOCC3)c(N(CC(=O)O)S(=O)(=O)c3ccc(OC)cc3)c3ccccc23)cc1 : 7.06

Value of measured pIC50 for the entry COc1ccc(S(=O)(=O)N(CC(=O)O)c2cc(CCC(N)=O)c(N(CC(=O)O)S(=O)(=O)c3ccc(OC)cc3)c3ccccc23)cc1 : 6.97

Value of measured pIC50 for the entry COc1ccc(S(=O)(=O)N(CC(N)=O)c2cc(CCC(=O)O)c(N(CC(N)=O)S(=O)(=O)c3ccc(OC)cc3)c3ccccc23)cc1 : 6.79
